Task for the reader: assign each of the following compounds its reported Population Tubulin-Different-Phenotype (%).
# Tested on: Fibroblast
# assay_overview: Multiplex assay against human fibroblast
# Assay type: toxicity, cell-based
# assay_conditions: 24 h, 1 µM, compound concentration 1 uM, replicate 1
Answers are plain numbers, in %.

- compound: "CC(C)OC(=O)N1CCC(Oc2ncnc3c2cnn3-c2ccc(S(C)(=O)=O)cc2F)CC1"
  assay_system: "Fibroblast"
  test_result: 45
- compound: "CC(C)CC(=O)Nc1[nH]nc2c1CN(C(=O)C1CCN(C)CC1)C2(C)C [PHA-793887]"
  assay_system: "Fibroblast"
  test_result: 3
- compound: "COc1ccccc1CN[C@H]1C2CCN(CC2)[C@H]1C(c1ccccc1)c1ccccc1 [CP-96345]"
  assay_system: "Fibroblast"
  test_result: 41
- compound: "CN1CCN(Cc2ccc(Nc3ncc(Cl)c(Nc4ccccc4S(=O)(=O)N(C)C)n3)cc2)CC1 [DUBERMATINIB]"
  assay_system: "Fibroblast"
  test_result: 37
- compound: "Cc1c[nH]c2nccc(Oc3c(F)cc(Nc4cc(Cl)nc(N)n4)cc3F)c12 [BAY-549]"
  assay_system: "Fibroblast"
  test_result: 34
- compound: "Cc1ccc2c(c1)c1c(n2CCc2ccc(C)nc2)CCN(C)C1 [LATREPIRDINE]"
  assay_system: "Fibroblast"
  test_result: 61

# batch: return Population Tubulin-Different-Phenotype (%) for each of the 2 compounds below
1. COc1cc2ncn(-c3cc(OCc4ccccc4C(F)(F)F)c(C(N)=O)s3)c2cc1OC [GW843682X]
2. CCc1nn(CCCN2CCN(c3cccc(Cl)c3)CC2)c(=O)n1CCOc1ccccc1.Cl [NEFAZODONE HYDROCHLORIDE]

Result:
[66, 68]

----------
# System: Fibroblast
# assay_overview: Multiplex assay against human fibroblast
# Type: toxicity, cell-based
# assay_conditions: 24 h, 10 µM, compound concentration 10 uM, replicate 2
Task for the reader: assign each of the following compounds its reported Population Pyknosed Nuclei (%).
Give bare numbers, in %.

# batch: return Population Pyknosed Nuclei (%) for each of the 4 compounds below
1. C[C@]12CC[C@@H]3c4ccc(O)cc4CC[C@H]3[C@@H]1CC[C@@H]2O
2. CCCSc1nc(N[C@@H]2C[C@H]2c2ccc(F)c(F)c2)c2nnn([C@@H]3C[C@H](OCCO)[C@@H](O)[C@H]3O)c2n1
3. O=c1[nH]c2ccccc2n1C1CCN(Cc2ccc(-c3[nH]c4cc5ncnc5cc4nc3-c3ccccc3)cc2)CC1
4. C=CC(=O)Nc1ccc2[nH]c(=O)n(C3CCN(Cc4ccc(-c5nc6cc[nH]c(=O)c6cc5-c5ccccc5)cc4)CC3)c2c1

Result:
1: 13; 2: 19; 3: 23; 4: 5

# batch: return Population Pyknosed Nuclei (%) for each of the 7 compounds below
1. CC1=C(C(=O)Nc2cc3cn[nH]c3cc2F)C(c2ccc(C(F)(F)F)cc2)CC(=O)N1 (stereo not drawn)
2. Cc1nc(N2CC[C@H](O)C2)ncc1-c1cc(C(F)(F)F)cc2[nH]ncc12
3. C=CC(=O)Nc1cccc(Sc2nc(Nc3ccc(N4CCN(C)CC4)cc3)ncc2Cl)c1
4. COc1cc(Nc2nccc(-c3cnn4nc(OC)ccc34)n2)cc(C(F)(F)F)c1
5. Cc1cccc(CN2CCN(C(c3ccccc3)c3ccc(Cl)cc3)CC2)c1.Cl.Cl (stereo not drawn)
6. O=C(c1cc2c(cc1F)OC(c1ccc(F)cc1)(c1ccc(Cl)cc1Cl)O2)N1CCOCC1 (stereo not drawn)
7. Cl.O=C(O)c1cc(-c2ccc(C3CCNCC3)cc2)c2ccc(-c3ccc(C(F)(F)F)cc3)cc2c1

Result:
8
10
0
17
12
29
20
